IC50 for Dipeptidyl peptidase 4 (Homo sapiens, UniProt P27487), merged from several publications.
measurementLabel: IC50 (µM)

{"molecule": "Cl.N[C@@H](CC(=O)N1CCn2c(nnc2C(F)(F)C(F)(F)F)C1)Cc1cc(F)ccc1F", "IC50 / µM": 0.103}
{"molecule": "CCN(C(C)=O)[C@H]1CC[C@H]([C@H](N)Cc2cc(F)ccc2F)CC1", "IC50 / µM": 0.26}
{"molecule": "CCCc1nc2ccc(OCC(N)=O)cc2c(-c2ccccc2)c1CN", "IC50 / µM": 0.51}
{"molecule": "NC(Cc1c[nH]cn1)C(=O)N1CCCCC1 (centres undefined)", "IC50 / µM": 213}
{"molecule": "C[C@H](c1nc(-c2ccc(Br)cc2Cl)no1)[C@H](N)C(=O)N1CCCC1", "IC50 / µM": 0.16}
{"molecule": "CS(=O)(=O)c1ccccc1C(=O)NC[C@@H]1CCCN1C(=O)C[C@H](N)Cc1ccccc1F", "IC50 / µM": 0.027}
{"molecule": "N[C@H]1CN(c2ccc3ccccc3n2)CC[C@@H]1c1cc(F)c(F)cc1F", "IC50 / µM": 0.054}

[1] C[C@H](c1n[nH]c(-c2ccc(Cl)cc2Cl)n1)[C@H](N)C(=O)N1CCCC1
[2] N[C@H]1C[C@@H](N2Cc3cncnc3C2)CC[C@@H]1c1cc(F)c(F)cc1F
Which value of IC50 is smaller, the one for 1 or the one for 2 ? # answer = label of selected item
2
